# RUN_PARAMETERS: mouse, in vivo
Starred links: 1 amine or outer side, 2 acyl side, 3 side chain; linkers in the order of their positions; H or OH if unused. Positions of bridges follow the written chain, without caps; N, C: chain ends. Non-standard residues stand in square brackets, D forms with d. Residues, ends and D or L forms follow the SMILES beside them. *: point of attachment. DOTA = O=C(O)CN1CCN(CC(=O)O)CCN(CC(=O)*)CCN(CC(=O)O)CC1; dPhe(4-NHCONH2) = NC(=O)Nc1ccc(C[C@@H](N)C(=O)O)cc1; X1 = NC(=O)Nc1ccc(CC(N[*:1])C(=O)[*:2])cc1; Phe(4-Cl) = N[CH](Cc1ccc(Cl)cc1)C(=O)O
So I've got a bunch of molecules here, and I need their Organ mass Brain values.
Please give a number only; it is taken to be in mg.

get_value(item= C[C@@H](O)[C@@H]1NC(=O)[C@H](CCCCN)NC(=O)[C@@H](Cc2c[nH]c3ccccc23)NC(=O)[C@H](Cc2ccc(O)cc2)NC(=O)[C@@H](NC(=O)[C@@H](Cc2ccccc2)NC(=O)CN2CCN(CC(=O)O)CCN(CC(=O)O)CCN(CC(=O)O)CC2)CSSC[C@@H](C(=O)N[C@H](CO)[C@@H](C)O)NC1=O [[^161Tb]Tb-DOTATOC] [metal not drawn] , readout=Organ mass Brain) returns 440

get_value(item= C[C@@H](O)[C@@H]1NC(=O)[C@H](CCCCN)NC(=O)[C@@H](Cc2ccc(NC(N)=O)cc2)NC(=O)[C@H](Cc2ccc(O)cc2)NC(=O)[C@H](NC(=O)[C@H](Cc2ccc(Cl)cc2)NC(=O)CN2CCN(CC(=O)O)CCN(CC(=O)O)CCN(CC(=O)O)CC2)CSSC[C@@H](C(=O)N[C@H](Cc2ccc(O)cc2)C(N)=O)NC1=O [metal not drawn] ({DOTA}-[Phe(4-Cl)][dC]Y[dPhe(4-NHCONH2)]KTC[dY]-NH2; disulfide 2-7) , readout=Organ mass Brain) returns 471

get_value(item= CC(O)C1NC(=O)C(CCCCN)NC(=O)C(Cc2ccc(NC(N)=O)cc2)NC(=O)C(Cc2ccc(O)cc2)NC(=O)C(NC(=O)C(Cc2ccc(Cl)cc2)NC(=O)CN2CCN(CC(=O)O)CCN(CC(=O)O)CCN(CC(=O)O)CC2)CSSCC(C(=O)NC(Cc2ccc(O)cc2)C(N)=O)NC1=O (stereo not shown) [metal not drawn] ({DOTA}-[Phe(4-Cl)]CY[X1]KTCY-NH2; disulfide 2-7; configuration not given here) , readout=Organ mass Brain) returns 465

get_value(item= C[C@@H](O)[C@@H]1NC(=O)[C@H](CCCCN)NC(=O)[C@@H](Cc2c[nH]c3ccccc23)NC(=O)[C@H](Cc2ccc(O)cc2)NC(=O)[C@@H](NC(=O)[C@@H](Cc2ccccc2)NC(=O)CN2CCN(CC(=O)O)CCN(CC(=O)O)CCN(CC(=O)O)CC2)CSSC[C@@H](C(=O)N[C@H](CO)[C@@H](C)O)NC1=O [[^177Lu]Lu-DOTATOC] [metal not drawn] , readout=Organ mass Brain) returns 453

---

So I've got a bunch of compounds here, and I need their Organ mass Liver values.
# RUN_PARAMETERS: mouse, in vivo
Starred links: 1 amine or outer side, 2 acyl side, 3 side chain; linkers in the order of their positions; H or OH if unused. Positions of bridges follow the written chain, without caps; N, C: chain ends. Non-standard residues stand in square brackets, D forms with d. Residues, ends and D or L forms follow the SMILES beside them. *: point of attachment. DOTA = O=C(O)CN1CCN(CC(=O)O)CCN(CC(=O)*)CCN(CC(=O)O)CC1; dPhe(4-NHCONH2) = NC(=O)Nc1ccc(C[C@@H](N)C(=O)O)cc1; X1 = NC(=O)Nc1ccc(CC(N[*:1])C(=O)[*:2])cc1; Phe(4-Cl) = N[CH](Cc1ccc(Cl)cc1)C(=O)O

get_value(item= C[C@@H](O)[C@@H]1NC(=O)[C@H](CCCCN)NC(=O)[C@@H](Cc2ccc(NC(N)=O)cc2)NC(=O)[C@H](Cc2ccc(O)cc2)NC(=O)[C@H](NC(=O)[C@H](Cc2ccc(Cl)cc2)NC(=O)CN2CCN(CC(=O)O)CCN(CC(=O)O)CCN(CC(=O)O)CC2)CSSC[C@@H](C(=O)N[C@H](Cc2ccc(O)cc2)C(N)=O)NC1=O [metal not drawn] ({DOTA}-[Phe(4-Cl)][dC]Y[dPhe(4-NHCONH2)]KTC[dY]-NH2; disulfide 2-7) , readout=Organ mass Liver) returns 1254 ± 106 mg

get_value(item= CC(O)C1NC(=O)C(CCCCN)NC(=O)C(Cc2ccc(NC(N)=O)cc2)NC(=O)C(Cc2ccc(O)cc2)NC(=O)C(NC(=O)C(Cc2ccc(Cl)cc2)NC(=O)CN2CCN(CC(=O)O)CCN(CC(=O)O)CCN(CC(=O)O)CC2)CSSCC(C(=O)NC(Cc2ccc(O)cc2)C(N)=O)NC1=O (stereo not shown) [metal not drawn] ({DOTA}-[Phe(4-Cl)]CY[X1]KTCY-NH2; disulfide 2-7; configuration not given here) , readout=Organ mass Liver) returns 1275 ± 254 mg

get_value(item= C[C@@H](O)[C@@H]1NC(=O)[C@H](CCCCN)NC(=O)[C@@H](Cc2c[nH]c3ccccc23)NC(=O)[C@H](Cc2ccc(O)cc2)NC(=O)[C@@H](NC(=O)[C@@H](Cc2ccccc2)NC(=O)CN2CCN(CC(=O)O)CCN(CC(=O)O)CCN(CC(=O)O)CC2)CSSC[C@@H](C(=O)N[C@H](CO)[C@@H](C)O)NC1=O [[^161Tb]Tb-DOTATOC] [metal not drawn] , readout=Organ mass Liver) returns 1195 ± 57 mg

get_value(item= C[C@@H](O)[C@@H]1NC(=O)[C@H](CCCCN)NC(=O)[C@@H](Cc2c[nH]c3ccccc23)NC(=O)[C@H](Cc2ccc(O)cc2)NC(=O)[C@@H](NC(=O)[C@@H](Cc2ccccc2)NC(=O)CN2CCN(CC(=O)O)CCN(CC(=O)O)CCN(CC(=O)O)CC2)CSSC[C@@H](C(=O)N[C@H](CO)[C@@H](C)O)NC1=O [[^177Lu]Lu-DOTATOC] [metal not drawn] , readout=Organ mass Liver) returns 1121 ± 123 mg
